target: PBR in MA-10 cells (Mus musculus); construct: endogenous in cells; test: [3H]PK 11195 binding in MA-10 Leydig cells; settings: 37° C., read-out: dissociation constant (Scatchard analysis)
Sequence (P50637 whole entry): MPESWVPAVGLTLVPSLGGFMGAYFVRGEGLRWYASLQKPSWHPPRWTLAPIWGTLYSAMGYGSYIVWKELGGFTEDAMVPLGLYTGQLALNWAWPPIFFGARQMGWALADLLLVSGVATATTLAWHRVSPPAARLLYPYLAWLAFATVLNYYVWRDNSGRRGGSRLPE
property label: Kd (nM)

>>> measured_number("CCC(C)N(C)C(=O)c1cc2ccccc2c(-c2ccccc2Cl)n1 (stereo not shown) [PK 11195]")
1.8

###

molecular target: peripheral-type benzodiazepine receptor (PBR) in Y-1 cells (Mus musculus); construct: Y-1 cell cultures were scraped from the flasks; experiment: [3H]PK 11195 binding in Y-1 adrenocortical cells; settings: 37° C., read-out: dissociation constant (Scatchard analysis)
property label: Kd (nM)

>>> measured_number("CCC(C)N(C)C(=O)c1cc2ccccc2c(-c2ccccc2Cl)n1 (stereo not shown) [PK 11195]")
1.8
